Hey, just so you know, these numbers are from ChEMBL document CHEMBL3507680.

- test: Human HepG2 cell viability assay in 384 well format
- Format: toxicity, cell-based
- Design: dose 125 nL, time 70.5 hour; concentration not given beside the values
- conditions: HepG2 cells, read-out: Inhibition
measured-endpoint: cytotoxicity at 70.5 h (%)
Give the value in % but do not write % after it.

Some molecules with recorded cytotoxicity at 70.5 h:
COCc1ncn(Cc2nc(-c3ccco3)oc2C)n1	6.06
Cc1ccc(C2CCCN2S(=O)(=O)N(C)CCc2ccccn2)o1 (stereo not given)	4.42
Cc1cc(Cc2ccccc2)cc(C2CCCNC2)n1 (stereo not given)	-5.23
CCOc1ccc(Cl)c(C(=O)NC)n1	0.647
CC(=O)Nc1ccc(C(=O)Nc2cnc3n2CCCC3)cc1C	5.91
CCn1nc(C)c2nnn(CC(=O)Nc3ccccc3)c(=O)c21	-10.7
CNC(=O)[C@H]1CO[C@H]2CCN(Cc3ccc4ccccc4n3)C[C@H]2C1	-0.28
O=C(CNC1(c2ccc(Cl)cc2)CCOCC1)NC1CCCC1	1.78

In: Query (molecule): `O=C(Nc1ccncc1)C1=NN(c2ccccc2)C(=O)CN1` ; field requested: cytotoxicity at 70.5 h
Out: -16.1

In: Query (molecule): `O=C(C1CC=CC1)N1CCC2(CC1)CN(Cc1ccccn1)CCO2` ; field requested: cytotoxicity at 70.5 h
Out: -4.02

---

- test: Human HepG2 cell viability assay in 384 well format
- Type: toxicity, cell-based
- Parameters: dose 125 nL, time 70.5 hour; concentration not given beside the values
- conditions: HepG2 cells, read-out: Inhibition
measured-endpoint: cytotoxicity at 70.5 h (%)
Give the value in % but do not write % after it.

C/N=C1\c2cc3cc(OC)ccc3n2CCN1C	-6.1
COc1ncccc1C(=O)NCC1Cc2ccccc2O1 (stereo not given)	-6.43
CCOc1cc(F)ccc1NC(=O)N(C(C)CS(C)(=O)=O)C1CC1 (stereo not given)	-4.36
COc1ccccc1S(=O)(=O)N1CCN(C)[C@@H]2CS(=O)(=O)C[C@@H]21	24.4

In: Query (compound): Cc1nc(N(C)C2CCCCC2)ncc1C(C)NC(=O)c1cscn1 (stereo not given) ; field requested: cytotoxicity at 70.5 h
Out: 1.66

---

- test: Human HepG2 cell viability assay in 384 well format
- Assay type: toxicity, cell-based
- Design: dose 125 nL, time 70.5 hour; concentration not given beside the values
- conditions: HepG2 cells, read-out: Inhibition
Measured cytotoxicity at 70.5 h values are reported for all entries that follow.
Number first, unit second: that is the form wanted.

Cn1cnnc1C1CCCN(C(=O)c2cc(Cl)c3c(c2)OCO3)C1 (stereo unspecified)	-11.6%
Cc1nc2ccccc2c(=O)n1CCC(=O)N1CCNC(=O)C1	-2.46%
CC(C)(C(=O)N[C@@H]1CCC[C@@H](O)[C@@H]1O)c1cccc(F)c1	-4.01%

In: Query (compound): `O=C(C1CCC1)N1CCO[C@H]2[C@H](OCCCn3cccn3)CC[C@@H]21` ; field requested: cytotoxicity at 70.5 h
Out: 29%

In: Query (compound): `CCCn1cc(NC(=O)c2cccc(CN3CC=CC3)c2)nn1` ; field requested: cytotoxicity at 70.5 h
Out: 45.4%

In: Query (compound): `CCOC(=O)CCCNc1nc(C(C)(C)C)nc2c1cnn2C` ; field requested: cytotoxicity at 70.5 h
Out: -3.02%

In: Query (compound): `Cc1nsc(C(=O)NCCc2ccc(S(N)(=O)=O)cc2)n1` ; field requested: cytotoxicity at 70.5 h
Out: -5.58%

In: Query (compound): c1ccc2c(c1)CC(Cc1cc(N3CCCC3)cnn1)CO2 (stereo unspecified) ; field requested: cytotoxicity at 70.5 h
Out: -7.55%

---

- test: Human HepG2 cell viability assay in 384 well format
- Type: toxicity, cell-based
- Parameters: dose 125 nL, time 70.5 hour; concentration not given beside the values
- conditions: HepG2 cells, read-out: Inhibition
measured-endpoint: cytotoxicity at 70.5 h (%)
Give the value in % but do not write % after it.

CSc1nccc(NCc2cc3n(n2)CCCN(C(=O)C2CCC2)C3)n1	22.4
Cc1cc(C)n(CC(=O)N(CC2CN(C)CCO2)c2nccs2)n1 (configuration not stated)	-4.83
Cc1nn(C)c(C)c1CC(=O)N1CCCC(CNS(C)(=O)=O)C1 (configuration not stated)	-0.898
N#Cc1ccccc1Cn1cncn1	9.79
Cc1cc(C)cc(CNC(c2ccccc2)c2nccn2C)c1 (configuration not stated)	1.26
O=C(CCC1CCCC1)N1CCC(c2ncc3c(n2)CCNC3)CC1	11.5
COCCOCCCC(=O)N1CCC(Cc2ccccc2OC)CC1	-10.9
Fc1ccc(CN2CCCC(Cn3cncn3)C2)c2ncccc12 (configuration not stated)	-5.13

In: Query (compound): Cc1ccccc1N1CCN(c2cc(N(C)C)ncn2)C(C)C1 (configuration not stated) ; field requested: cytotoxicity at 70.5 h
Out: -9.42

In: Query (compound): COc1cccc2[nH]cc(CCNC(=O)N3CCOCC3C3CC3)c12 (configuration not stated) ; field requested: cytotoxicity at 70.5 h
Out: 23.2

In: Query (compound): COCCN1CCC2(COCc3c(C)nc(N(C)C)nc32)C1 (configuration not stated) ; field requested: cytotoxicity at 70.5 h
Out: -2.27

In: Query (compound): CCC(C)CS(=O)(=O)NC(=O)C1CCC1 (configuration not stated) ; field requested: cytotoxicity at 70.5 h
Out: 21.3

---

- test: Human HepG2 cell viability assay in 384 well format
- Assay type: toxicity, cell-based
- Set-up: dose 125 nL, time 70.5 hour; concentration not given beside the values
- conditions: HepG2 cells, read-out: Inhibition
Measured cytotoxicity at 70.5 h values are reported for all entries that follow.
Give the value in % but do not write % after it.

O=C(O)c1cc(NS(=O)(=O)c2ccc(Cl)s2)ccc1N1CCOCC1	-2.78

In: Query (molecule): `O=C(NC1CC1)c1cn(C2CCN(c3cc(C4CC4)ncn3)CC2)nn1` ; field requested: cytotoxicity at 70.5 h
Out: 30

In: Query (molecule): `Cc1nccn1[C@@H]1CC[C@@H](N(C)S(=O)(=O)c2ccccc2F)[C@H]1O` ; field requested: cytotoxicity at 70.5 h
Out: -3.2

In: Query (molecule): `CCOc1ncccc1NC(=O)c1cc(C)c(C)s1` ; field requested: cytotoxicity at 70.5 h
Out: -7.38

In: Query (molecule): `COc1cccc(S(=O)(=O)CCN2CCCCC2)c1` ; field requested: cytotoxicity at 70.5 h
Out: -15.7

---

- test: Human HepG2 cell viability assay in 384 well format
- Format: toxicity, cell-based
- Design: dose 125 nL, time 70.5 hour; concentration not given beside the values
- conditions: HepG2 cells, read-out: Inhibition
Measured cytotoxicity at 70.5 h values are reported for all entries that follow.
Give the value in % but do not write % after it.

In: Query (molecule): `Cc1ccc(Cc2cnc(C3CCNCC3)cn2)cc1` ; field requested: cytotoxicity at 70.5 h
Out: -12.9

In: Query (molecule): Cc1csc(C2NC3(CCCC3)C(=O)N2CC2CC2)n1 (stereo not given) ; field requested: cytotoxicity at 70.5 h
Out: 4.39

In: Query (molecule): `Cc1ccc(S(=O)(=O)NC(=O)c2cccc3c2OCCO3)c(C)c1` ; field requested: cytotoxicity at 70.5 h
Out: -3.86

In: Query (molecule): NC(=O)C1CN(C(=O)Nc2ccccc2SC(F)(F)F)CCO1 (stereo not given) ; field requested: cytotoxicity at 70.5 h
Out: -10.6

In: Query (molecule): `CC(C)Cc1ncc2c(n1)CN(C(=O)c1ccc(CN3CCCC3)o1)C2` ; field requested: cytotoxicity at 70.5 h
Out: -7.27

In: Query (molecule): NC(=O)C1CCCN(C(=O)c2cnc3c(cnn3C3CCCC3)c2)C1 (stereo not given) ; field requested: cytotoxicity at 70.5 h
Out: 33

In: Query (molecule): Cc1ccc2c(c1)CCC2NC(=O)N1CCC(C(N)=O)CC1 (stereo not given) ; field requested: cytotoxicity at 70.5 h
Out: -6.61

---

- test: Human HepG2 cell viability assay in 384 well format
- Assay type: toxicity, cell-based
- Set-up: dose 125 nL, time 70.5 hour; concentration not given beside the values
- conditions: HepG2 cells, read-out: Inhibition
measured-endpoint: cytotoxicity at 70.5 h (%)
Give the value in % but do not write % after it.

Nc1nccnc1C(=O)N1CCN(CCOc2ccccc2)CC1	20.7
Oc1ccc(N2CCN(Cc3cc4c(cc3Br)OCCO4)CC2)cc1	5.3
CC(C)(C)c1ccc(-n2ncc3c2CCCC3N)cc1 (stereo unspecified)	-3.43

In: Query (compound): O=C(O)c1c(-c2ccncc2)ncc2c1CCN(CC1CCOC1)C2 (stereo unspecified) ; field requested: cytotoxicity at 70.5 h
Out: -4.36

In: Query (compound): Cn1nnc2c1C(COCC1CC1)CN(C(=O)Cc1ccsc1)C2 (stereo unspecified) ; field requested: cytotoxicity at 70.5 h
Out: -0.74

In: Query (compound): `CCOc1ncccc1NC(=O)c1sccc1C` ; field requested: cytotoxicity at 70.5 h
Out: -7.66
